Reference source for all entries: paper PMC12136788

Target: T1, UNK ZnF1-3 (human, UniProt Q9C0B0 31-174)
T1 sequence: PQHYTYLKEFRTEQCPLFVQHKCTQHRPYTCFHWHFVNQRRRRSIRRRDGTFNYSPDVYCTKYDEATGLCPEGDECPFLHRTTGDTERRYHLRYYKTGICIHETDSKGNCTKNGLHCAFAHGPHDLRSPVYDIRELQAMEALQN
Experiment: nsRBNS (natural sequence RNA bind-n-seq); RBNS binding buffer (assumed for nsRBNS): 25 mM Tris pH 7.5, 150 mM KCl, 3 mM MgCl2, 0.01% Triton X-100, 500 ug/ml BSA, 20 U/ml SUPERase-In, 4 C; UNK is unkempt and MSI1 is Musashi-1; names of the RNAs are library labels; protein concentration not given here; high values mean tight binding
Over roughly 24,000 sequences, “enrichment r” has its median near 0.99; the highest 2% begin near 3.7. The sample holds the highest values, similar sequences and a random draw of the others, so the mix is not that of the screen.
reported-metric: binding signal (enrichment R)
Write the value in enrichment R as a bare number.

Task: May I ask what binding signal has been recorded for 76004153_76004273_12107_CDS_ENSMUSG00000022565_ENSMUST00000071869|mouse|control|control (ssRNA) RNA: GGGAGUUCUACAGUCCGACGAUCCUUCAUGGCCUGGAAGAGGGAGAUGAGUUUCCCAGAGUAGGGGUCCUUGUAGCCAGUGACGGCACGCUCAGCUGACAGCAGCUUGUCCUUGAACUCGGGGCCCACAAUACCCAUACGAACCAACAGAGGAUUGAGCAUCA ?
Output: 1.29

Task: May I ask what binding signal has been recorded for chr11:77336104:77336105:-_ENSG00000074201_ENST00000525064|hu_mus|hu_hu_hu_mus_False|68_98 (ssRNA) RNA: GGGAGUUCUACAGUCCGACGAUCCUCACACAUUGCUGUGAACAUUGCCUCCAAUGCUGACUUAUCACUAGGCACAAAUCGAAAUUCAGAAAUGGGUUCAACAUCAUCAUUGUCUUCCUCAUCUUCAUCAGAGAGAGGUUCUUUCAACAGAGGAUUGAGCAUCA ?
Output: 0.885

Task: May I ask what binding signal has been recorded for chr5:128448638:128448639:+_ENSG00000066583_ENST00000173527|hu_mus|hu_hu_hu_mus_False|8_98 (ssRNA) RNA: GGGAGUUCUACAGUCCGACGAUCGGCACUCGCCUUAAUUAGAUUCUGAAUUUCCUUGAACUUCGGGUGGUCUUUGUCAGCCACCAGCUGUAGGAGGACAGCCUCACUAGUGGUCACGAUGAUCCCAGUUCGAGCGAGACGCUCCAACAGAGGAUUGAGCAUCA ?
Output: 0.656
